I'd be grateful if you could share measured binding signal for these entries.
Target: T1, RBFOX1 RRM RbFoxmut (Fox-RRM*) (Homo sapiens, UniProt Q9NWB1 109-208, R118D;E147R;N151S;E152T)
T1 sequence: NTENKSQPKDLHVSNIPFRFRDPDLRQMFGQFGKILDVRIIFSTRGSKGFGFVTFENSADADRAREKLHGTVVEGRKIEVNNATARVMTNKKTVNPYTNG
Assay: EMSA; HiTS-Eq, 1 nM pool, 10 min; buffer printed only for the single-RNA assays: 10 mM Tris pH 7.5, 150 mM NaCl, 3.4 mM EDTA, 0.001% NP-40, 30 C
Conditions: tags: His6 N-terminal (pET28a); label: 5' 32P
Whole data set: some 16,000 sequences, median “ka relative to ugcaugu” near 0.096, cut for the highest 2% near 0.35. The entries come from a sample that favours the highest values as a whole.

Here are 3 binders together with their reported answers.
Fill in reported binding signal for this entry: AACCCAG (DNA:RNA) RNA: GGGAGACCGGAAUUCAGAUUGUCCAACCCAGUUAAAUCCCGUCGUAGCCACCA DNA 1: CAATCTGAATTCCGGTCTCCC DNA 2: TGGTGGCTACGACGGGATT
0.0936 KA relative to UGCAUGU

# return recorded binding signal for entry GACUUUG (DNA:RNA) RNA: GGGAGACCGGAAUUCAGAUUGUCCGACUUUGUUAAAUCCCGUCGUAGCCACCA DNA 1: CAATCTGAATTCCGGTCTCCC DNA 2: TGGTGGCTACGACGGGATT
0.0901 KA relative to UGCAUGU

Indicate the recorded binding signal value for this binder: UUAACCU (DNA:RNA) RNA: GGGAGACCGGAAUUCAGAUUGUCCUUAACCUUUAAAUCCCGUCGUAGCCACCA DNA 1: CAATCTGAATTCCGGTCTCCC DNA 2: TGGTGGCTACGACGGGATT
0.0822 KA relative to UGCAUGU

Others:
Could you please provide reported binding signal for AAAAUAC (DNA:RNA) RNA: GGGAGACCGGAAUUCAGAUUGUCCAAAAUACUUAAAUCCCGUCGUAGCCACCA DNA 1: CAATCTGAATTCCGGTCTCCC DNA 2: TGGTGGCTACGACGGGATT ? Thanks!
0.076 KA relative to UGCAUGU

Values were extracted from paper PMC9911399.
